target: Dual specificity mitogen-activated protein kinase kinase 7 (Homo sapiens); assay: Binding affinity to wild type full length human MKK7 (M1 to R419 residues) expressed in mammalian expression system assessed as residual activity at 100 nM measured by Kinomescan assay
MEASURE_NAME: Activity (%)

{"columns": ["SMILES_CODE", "Activity / %"],
 "data": [
  ["CCCS(=O)(=O)Nc1ccc(F)c(C(=O)c2c[nH]c3ncc(-c4cc5c(cc4Cl)OCO5)cc23)c1F", 100],
  ["CCCC(=O)Nc1ccc(F)c(C(=O)c2c[nH]c3ncc(-c4ccc(Cl)cc4)cc23)c1F", 94],
  ["O=C(c1cccc(NS(=O)(=O)Cc2ccccc2)c1F)c1c[nH]c2ncc(-c3cccnc3)cc12", 85],
  ["O=C(c1cccc(NS(=O)(=O)Cc2ccccc2)c1F)c1c[nH]c2ncc(-c3cc4c(cc3Cl)OCO4)cc12", 100],
  ["CCCS(=O)(=O)Nc1ccc(F)c(C(=O)c2c[nH]c3ncc(-c4ccc(C)cc4)cc23)c1F", 89],
  ["CCCS(=O)(=O)Nc1ccc(F)c(C(=O)c2c[nH]c3ncc(-c4ccccc4C)cc23)c1F", 100],
  ["CCCS(=O)(=O)Nc1cccc(C(=O)c2c[nH]c3ncc(-c4ccc(Cl)cc4)cc23)c1C", 91],
  ["CCCS(=O)(=O)Nc1ccc(F)c(C(=O)c2c[nH]c3ncc(-c4ccc(OC)cc4OC)cc23)c1F", 87]
]}

* * *

Target: Dual specificity mitogen-activated protein kinase kinase 4 (Mus musculus)
Sequence (P47809 whole entry): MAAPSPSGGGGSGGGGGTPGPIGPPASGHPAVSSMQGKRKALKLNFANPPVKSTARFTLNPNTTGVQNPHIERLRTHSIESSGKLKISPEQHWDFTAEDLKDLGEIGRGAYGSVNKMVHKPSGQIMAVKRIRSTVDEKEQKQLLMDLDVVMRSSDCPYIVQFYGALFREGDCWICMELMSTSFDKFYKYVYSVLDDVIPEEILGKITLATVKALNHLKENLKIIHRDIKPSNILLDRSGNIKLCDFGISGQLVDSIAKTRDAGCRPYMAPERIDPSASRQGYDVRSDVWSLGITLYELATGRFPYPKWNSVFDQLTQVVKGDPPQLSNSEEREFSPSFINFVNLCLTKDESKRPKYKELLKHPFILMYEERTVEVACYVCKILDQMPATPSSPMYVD
Assay: Binding affinity to GST tagged mouse MKK4 expressed in Escherichia coli expression system measured by Kinomescan assay
pKd: −log10 of the molar value.
MEASURE_NAME: pKd

P. O=C(c1cccc(NS(=O)(=O)Cc2ccccc2)c1F)c1c[nH]c2ncc(-c3cnc(C4CC4)nc3)cc12
Q. O=C(c1cccc(NS(=O)(=O)Cc2ccccc2)c1F)c1c[nH]c2ncc(-c3cc4c(cc3Cl)OCCO4)cc12
Inquiry: I need your help: which of the pair P , Q has higher pKd? Please identify the chosen entry by its label.
Reply text: P
(P: 8.96, Q: 8.46)

1. COc1ncc(-c2cnc3[nH]cc(C(=O)c4cccc(NS(=O)(=O)Cc5ccccc5)c4F)c3c2)cn1
2. CCCS(=O)(=O)Nc1ccc(F)c(C(=O)c2c[nH]c3ncc(-c4ccc(Cl)cc4)cc23)c1F
Inquiry: I need your help: which of the pair 1 , 2 has higher pKd? Please identify the chosen entry by its label.
Reply text: 1
